Entry source: the supplement of paper PMC7801607

Test system: Plasmodium falciparum NF54 asexual blood stage
Experiment: % inhibition of asexual blood stage proliferation (pLDH); higher = more inhibition
Details: 2 µM; 72 h
What % inhibition of asexual blood stage proliferation was measured for each of the following?
Give just the number in %; leave the unit off.

Entry CC(C)(C)NC(=O)[C@@H]1C[C@@H]2CCCC[C@@H]2CN1C[C@@H](O)[C@H](Cc1ccccc1)NC(=O)[C@H](CC(N)=O)NC(=O)c1ccc2ccccc2n1 ; % inhibition of asexual blood stage proliferation = 40

Entry NC(=O)c1ccccc1NC(=O)c1ccc(C(=O)Nc2ccccc2C(N)=O)cc1 ; % inhibition of asexual blood stage proliferation = 5.85

Entry O=C(Nc1ccc(F)cc1)c1nn(-c2ccccc2)c(=O)cc1Cl ; % inhibition of asexual blood stage proliferation = 35.1

Entry C=CCc1cc(Cc2cnc(N)nc2N)cc(OC)c1O ; % inhibition of asexual blood stage proliferation = 29.1

Entry CCCCCCCc1[nH]c2ccccc2c(=O)c1O ; % inhibition of asexual blood stage proliferation = 22.4

====

System: CHO
Assay: % viability of CHO cells (MTT); higher = less toxic
Settings: 2 µM; 48 h
What % viability of CHO cells was measured for each of the following?
Give just the number in %; leave the unit off.

Entry C=C[C@]1(C)C[C@@H](OC(=O)CS[C@@H]2C[C@H]3CC[C@@H](C2)N3C)[C@]2(C)[C@H](C)CC[C@]3(CCC(=O)[C@H]32)[C@@H](C)[C@@H]1O ; % viability of CHO cells = 77.8

Entry COc1ccc(C)cc1NC(=O)c1ccc(S(=O)(=O)N2CCCCC2)cc1 ; % viability of CHO cells = 128

Entry COc1cccc(N2CCN(C3=Nc4c(F)cccc4[C@H](CC(=O)O)N3c3cc(C(F)(F)F)ccc3OC)CC2)c1 ; % viability of CHO cells = 90.8

Entry O=C1c2cccc3cccc(c23)C(=O)N1CC1CO1 (stereo not drawn) ; % viability of CHO cells = 107

Entry O=C(Nc1ccccc1C(=O)O)c1cccc(Oc2ccccc2)c1 ; % viability of CHO cells = 113

Entry O=C1C=C(c2ccccc2)S(=O)(=O)c2ccccc21 ; % viability of CHO cells = 91.6

Entry COCCn1cnc2c(=O)[nH]c(Nc3ccccc3)nc21 ; % viability of CHO cells = 103

Entry CC(=O)Oc1ccccc1C(=O)Nc1ncc([N+](=O)[O-])s1 ; % viability of CHO cells = 91.3

====

System: Plasmodium falciparum NF54 stage IV/V gametocytes
Test: % inhibition of gametocyte viability (PrestoBlue); higher = more inhibition
Conditions: 5 µM; 48 h
readout-label: % inhibition of gametocyte viability (%)
Give just the number in %; leave the unit off.

Item: Cn1cc(NC(=O)c2cc(NC(=O)c3ccc(/C=C/c4cnc5ccccc5c4)cc3)cn2C)cc1C(=O)NCCN1CCOCC1 | System: Plasmodium falciparum NF54 stage IV/V gametocytes | % inhibition of gametocyte viability: 55.1

Item: O=C(Nc1cccc(C2=NCCN2)c1)c1ccc(-c2ccc(C(=O)Nc3cccc(C4=NCCN4)c3)cc2)cc1 | System: Plasmodium falciparum NF54 stage IV/V gametocytes | % inhibition of gametocyte viability: 62.4

Item: Cc1c(OCC(F)(F)F)ccnc1CS(=O)c1nc2ccccc2[nH]1 (stereo not drawn) | System: Plasmodium falciparum NF54 stage IV/V gametocytes | % inhibition of gametocyte viability: 15.8

Item: COc1ccc(NC(=O)CC2Sc3ncnn3C2=O)cc1 (stereo not drawn) | System: Plasmodium falciparum NF54 stage IV/V gametocytes | % inhibition of gametocyte viability: 2.6

====

Tested on: Plasmodium falciparum NF54 stage IV/V gametocytes
Assay: % inhibition of gametocyte viability (PrestoBlue); higher = more inhibition
Settings: 1 µM; 48 h
What % inhibition of gametocyte viability was measured for each of the following?

Entry CC(C)C(=O)N[C@H]1[C@H]([C@H](O)[C@H](O)CO)OC(C(=O)O)=C[C@@H]1N=[N+]=[N-] ; % inhibition of gametocyte viability = < 0%

Entry CCC(C)(C)c1ccc(CC(C)CN2C[C@@H](C)O[C@@H](C)C2)cc1 (some centres not stated) ; % inhibition of gametocyte viability = < 0%

Entry Cc1cc(C)n(O)c(=O)c1 ; % inhibition of gametocyte viability = < 0%

Entry CC(C)c1ccc(COc2cccc(-c3cc(S(C)=O)c(C#N)c(=O)[nH]3)c2)cc1 (configuration not stated) ; % inhibition of gametocyte viability = < 0%

Entry COc1nc2ccc(Br)cc2cc1[C@@H](c1ccccc1)[C@@](O)(CCN(C)C)c1cccc2ccccc12 ; % inhibition of gametocyte viability = < 0%

Entry COc1c(NC(=O)[C@H]2CC[C@@H](COc3ccc([N+](=O)[O-])cc3)CC2)c(F)cc2c(=O)c(C(=O)O)cn(C3CC3)c12 ; % inhibition of gametocyte viability = < 0%

Entry CC(C)(C)c1ccc(C(=O)NC(=O)N2CCCc3ccccc32)cc1 ; % inhibition of gametocyte viability = < 0%

Entry O=C(c1cc(O)nc2ccccc12)N1CCN(c2ccccc2)CC1 ; % inhibition of gametocyte viability = < 0%

Entry COc1ccc2c(c1OC)C(=O)OC2C1c2c(cc3c(c2OC)OCO3)CCN1C (configuration not stated) ; % inhibition of gametocyte viability = < 0%

Entry CC[C@@]1(O)C(=O)OCc2c1cc1n(c2=O)Cc2cc3c([N+](=O)[O-])cccc3nc2-1 ; % inhibition of gametocyte viability = < 0%

Entry Oc1ccc(NCc2ccccc2OCc2ccccc2)cc1 ; % inhibition of gametocyte viability = < 0%

Entry CC(Cc1ccccc1)C(=O)Nc1ccc(Cl)cc1C(=O)O (configuration not stated) ; % inhibition of gametocyte viability = < 0%

====

Tested on: Plasmodium falciparum NF54 stage IV/V gametocytes
Assay: % inhibition of gametocyte viability (PrestoBlue); higher = more inhibition
Conditions: 1 µM; 48 h
What % inhibition of gametocyte viability was measured for each of the following?

Entry O=C(N[C@H](CCS)C(=O)N[C@H](Cc1ccccc1)C(=O)O)c1cc2ccccc2[nH]1 ; % inhibition of gametocyte viability = < 0%

Entry CCCCCOc1ccc(/C=C2\Oc3c(ccc(O)c3O)C2=O)c(O)c1 ; % inhibition of gametocyte viability = < 0%

Entry NC(=O)c1[nH]c2ccc(S(N)(=O)=O)cc2c1-c1ccccc1 ; % inhibition of gametocyte viability = < 0%

====

System: Plasmodium falciparum NF54 stage IV/V gametocytes
Assay: % inhibition of gametocyte viability (luciferase reporter); higher = more inhibition
Conditions: 5 µM; 48 h
readout-label: % inhibition of gametocyte viability

Entry Fc1ccc2c(/C=C/c3cccnc3)c[nH]c2c1 ; % inhibition of gametocyte viability = < 0%

Entry CONC(=N)c1ccc(-c2ccc(-c3ccc(C(=N)NOC)cc3)o2)cc1 ; % inhibition of gametocyte viability = < 0%

Entry O=C(CSc1nnc(Br)n1-c1ccc(C2CC2)c2ccccc12)Nc1ccc(C(=O)O)cc1Cl ; % inhibition of gametocyte viability = < 0%
